Test: Intrinsic solubility of the compound
Format: physicochemical
Settings: read-out: Intrinsic_solubility
Collected solubility values appear next to each entry.
Write the answer as a number in µg/mL, unit excluded.

smiles.str | unit.spec | solubility
COc1cc2c(O)c(/C=C/C(=O)N3CCC=CC3=O)c(=O)oc2c(OC)c1OC | µg/mL | 316

Kindly consider the entry below.
Report solubility, nothing else, for this compound: "COc1cc(/C=C/C(=O)N2CCC=CC2=O)cc(OC)c1OC"
0.75

###

Experiment: Permeability of the compound at pH 7.4
Type: physicochemical
Conditions: not told, read-out: permeability
measure: Papp
Remember to follow the number with its unit.

compound | Papp
CC(C)NCC(O)COc1cccc2ccccc12 (centres undefined) [PROPRANOLOL] | 117 ×10⁻⁶ cm/s
COc1cc2c(O)c(/C=C/C(=O)N3CCC=CC3=O)c(=O)oc2c(OC)c1OC | 20.2 ×10⁻⁶ cm/s
CC(C(=O)O)c1cccc(C(=O)c2ccccc2)c1 (centres undefined) [KETOPROFEN] | 1.98 ×10⁻⁶ cm/s

Report Papp, nothing else, for this compound: COc1cc(/C=C/C(=O)N2CCC=CC2=O)cc(OC)c1OC [PIPLARTINE]
24.6 ×10⁻⁶ cm/s
